# Test Protocol: qHTS assay to identify inhibitors of the type 1 interferon - major histocompatibility complex class I in skeletal muscle: Counter screen cell viability and HiBit confirmation (AID 1347412); note: potency is the fitted concentration of half-maximal effect; nearly all actives have a fitted effect of over 60% in size
# Condition Summary: iHSKM muscle cells + IFN-b, HiBiT or CellTiter-Glo, 24 h; Viability
Results filed as inconclusive are left out. Calls of active or inactive are those of the source. Calls come from the whole dose curve; as a rule, active = well fitted inhibition curve with a large enough effect; inconclusive = small, poorly fitted or top-dose-only effect; inactive = no such curve, though single readings can be large or run the other way.
Observation Type: Potency

These solved cases illustrate the format of a correct answer.
Molecule: CN1CCN(C2CCC(n3cc(-c4ccc(Oc5ccccc5)cc4)c4c(N)ncnc43)CC2)CC1 (centres undefined)
Value: 11.1 µM (active)
--
Molecule: CN1CCN(c2ccc(C(=O)Nc3n[nH]c4ccc(Cc5cc(F)cc(F)c5)cc34)c(NC3CCOCC3)c2)CC1
Value: 27.9 µM (active)
--
Molecule: CCN1CCN(Cc2ccc(NC(=O)c3ccc(C)c(/C=C/c4cnc5[nH]ccc5c4OC)c3)cc2C(F)(F)F)CC1
Value: 14 µM (active)

Endpoint output: Potency of CCN1CCN(Cc2ccc(NC(=O)c3ccc(C)c(NC(=O)c4cncc(-c5cccs5)c4)c3)cc2C(F)(F)F)CC1 . Value?
12.5 µM (active)

====

# Tested on: Es-2
# Test Protocol: Primary qHTS to identify gynecologic anti-cancer compounds using libraries of approved drugs and bioactive compounds (AID 1345084); note: nearly all actives have a fitted effect of over 55% in size
# Condition Summary: Gynecologic cancer cell panel viability, ATPlite luminescence, 48 h; series mostly up to 57.5 µM
Records with an inconclusive call do not appear. Activity calls are given as the source filed them. The call rests on the fitted dose curve; in most records, active means well fitted cell-killing curve with a large enough effect; inconclusive means small, poorly fitted or top-dose-only effect, or effect the other way; inactive means flat fitted curve, though single readings scatter.
Thanks in advance; please answer with one of these: TRUE for active, FALSE for inactive

Use these answered entries as a reference point.
Compound: COc1cc(Nc2nc3c(s2)CCCC3c2ccc(F)cc2)ccc1-n1cnc(C)c1 (centres undefined)
Assay Target: Es-2
Label Class: FALSE
//
Compound: CC(C)=CCC[C@](C)(O[C@@H]1O[C@H](CO)[C@@H](O)[C@H](O)[C@H]1O)[C@H]1CC[C@]2(C)[C@@H]1[C@H](O)CC1[C@@]3(C)CC[C@H](O)C(C)(C)C3[C@@H](O[C@@H]3O[C@H](CO)[C@@H](O)[C@H](O)[C@H]3O)C[C@]12C (some centres undefined)
Assay Target: Es-2
Label Class: FALSE
//
Compound: c1cc(Nc2cc(C3CC3)[nH]n2)nc(Nc2ccc3nc[nH]c3c2)n1
Assay Target: Es-2
Label Class: TRUE

Per the records of this test, what outcome belongs to C(#Cc1nc2ncccc2nc1OCCN1CCCC1)c1ccccc1 ?
TRUE

====

Reported activity change, negative = cytotoxicity values for the following molecules.
# Test Protocol: P-glycoprotein substrates identified in KB-8-5-11 adenocarcinoma cell line, qHTS therapeutic library screen (AID 1346987); note: % is set by controls: 0 for no effect and ±100 for the full control effect; nearly all actives have a fitted effect of over 65% in size
# Condition Summary: KB-8-5-11 (P-gp overexpressing) viability, CellTiter-Glo, 72 h; series mostly up to 44.5 µM
Records with an inconclusive call do not appear. Activity calls are given as the source filed them. Calls follow the shape of the dose curve; as a rule, active = well fitted inhibition curve with a large enough effect; inconclusive = small, poorly fitted or top-dose-only effect; inactive = flat fitted curve, though single readings scatter.

Below: 5 molecules and their reported activity change, negative = cytotoxicity.
Molecule: C[C@@H]1O[C@@H](O[C@H]2[C@H](O[C@H]3[C@H](O)[C@@H](C(=O)O)O[C@@H](O[C@H]4CC[C@@]5(C)C(CC[C@]6(C)C5CC[C@]57OC[C@@]8(CCC(C)(C)CC85)[C@H](O)C[C@]76C)C4(C)C)[C@@H]3O[C@@H]3O[C@H](CO)[C@@H](O[C@@H]4OC[C@@H](O)[C@H](O)[C@H]4O)[C@H](O)[C@H]3O)O[C@H](CO)[C@H](O)[C@@H]2O)[C@H](O)[C@H](O)[C@H]1O (some centres not stated)
Value: 2.43% [at 9.29 µM] (inactive)
//
Molecule: CC1OC(OC2C(OC3C(O[C@H]4CC[C@@]5(C)C(CC[C@]6(C)C5C(=O)C=C5C7CC(C)(C)CC(O)[C@]7(C)CC[C@]56C)C4(C)C)OC(C(=O)O)C(O)C3O)OCC(O)C2O)C(O)C(O)C1O (some centres not stated)
Value: 7.36% [at 9.29 µM] (inactive)
//
Molecule: C[C@@H]1O[C@@H](O[C@@H]2[C@@H](O)[C@H](O[C@H]3[C@H](O[C@H]4CC[C@@]5(C)C(CC[C@]6(C)C5CC=C5[C@@H]7CC(C)(C)CC[C@]7(C(=O)O[C@@H]7O[C@H](CO)[C@@H](O)[C@H](O)[C@H]7O[C@@H]7O[C@@H](C)[C@H](O[C@@H]8O[C@@H](C)[C@H](O)[C@@H](O)[C@H]8O)[C@@H](O)[C@H]7O)CC[C@]56C)[C@@]4(C)CO)O[C@H](C(=O)O)[C@@H](O)[C@@H]3O)O[C@H](CO)[C@H]2O)[C@H](O)[C@H](O)[C@H]1O (some centres not stated)
Value: 9.26% [at 9.29 µM] (inactive)
//
Molecule: C[C@@H]1O[C@@H](O[C@H]2[C@H](O)[C@@H](O)[C@H](O[C@H]3[C@H](O[C@H]4CC[C@@]5(C)C(=CC[C@@H]6C5CC[C@]5(C)[C@@H]7[C@H](C[C@@H]65)O[C@]5(CC[C@@](C)(CO[C@@H]6O[C@H](CO)[C@@H](O)[C@H](O)[C@H]6O)O5)[C@H]7C)C4)O[C@H](CO)[C@@H](O)[C@@H]3O)O[C@@H]2CO)[C@H](O)[C@H](O)[C@H]1O (some centres not stated)
Value: 4.84% [at 9.29 µM] (inactive)
//
Molecule: CC(C)=CCC[C@](C)(O[C@@H]1O[C@H](CO)[C@@H](O)[C@H](O)[C@H]1O)[C@H]1CC[C@]2(C)[C@@H]1[C@H](O)CC1[C@@]3(C)CC[C@H](O)C(C)(C)C3[C@@H](O[C@@H]3O[C@H](CO)[C@@H](O)[C@H](O)[C@H]3O[C@@H]3OC[C@@H](O)[C@H](O)[C@H]3O)C[C@]12C (some centres not stated)
Value: -2.05% [at 9.29 µM] (inactive)

Look up activity change, negative = cytotoxicity: CC(=O)C1=C(C)N(c2cccc(C(F)(F)F)c2)C(=O)N[C@H]1c1ccc(C#N)nc1
-2.98% [at 9.29 µM] (inactive)

Then CC1(C)CCC2(C(=O)OC3OC(CO)C(O)C(O)C3O)CCC3(C)C(=CCC4C5(C)CCC(OC6OC(C(=O)O)C(OC7OC(CO)C(O)C(O)C7O)C(OC7OC(CO)C(O)C(O)C7O)C6O)C(C)(C)C5CCC43C)C2C1 (configuration not stated) ?
4.92% [at 9.29 µM] (inactive)
